# System: Escherichia coli TOP10
# PROTOCOL: shrunken log2 fold change of peptide-encoding DNA abundance (4.5 h post-induction vs induction); higher = less antimicrobial activity (less host growth inhibition)
# EXPERIMENTAL SETUP: time post-induction: 4.5 h; library: site-saturation at positions 5, 18, 19, 20
Each record here notes measured shrunken log2 fold change.

# SEQ TEXT, shrunken log2 fold change
records = [
    ("RRIRRRPPRLPRPRPRPTQDPRP", 1.87),
    ("RRIRSRPPRLPRPRPRPGTNPRP", -0.188),
    ("RRIRSRPPRLPRPRPRPLTCPRP", -0.114),
    ("RRIRGRPPRLPRPRPRPKMGPRP", 1.21),
    ("RRIRNRPPRLPRPRPRPIWVPRP", -0.0659),
    ("RRIRCRPPRLPRPRPRPKMKPRP", -0.269),
    ("RRIRFRPPRLPRPRPRPQYQPRP", -0.118),
    ("RRIRWRPPRLPRPRPRPPKVPRP", 0.136),
    ("RRIRHRPPRLPRPRPRPGGHPRP", 0.125),
    ("RRIRMRPPRLPRPRPRPTAMPRP", 1.14),
    ("RRIRRRPPRLPRPRPRPIEVPRP", 0.0048),
    ("RRIRWRPPRLPRPRPRPITNPRP", -0.0654),
    ("RRIRPRPPRLPRPRPRPRCCPRP", 0.119),
    ("RRIRWRPPRLPRPRPRPNKCPRP", -0.109),
    ("RRIRLRPPRLPRPRPRPKRMPRP", -0.029),
    ("RRIRKRPPRLPRPRPRPSSTPRP", -0.151),
    ("RRIRMRPPRLPRPRPRPVIGPRP", -0.0424),
    ("RRIRDRPPRLPRPRPRPGKYPRP", -0.124),
    ("RRIRKRPPRLPRPRPRPKVHPRP", 0.243),
    ("RRIRNRPPRLPRPRPRPGYNPRP", -0.198),
    ("RRIRFRPPRLPRPRPRPFKEPRP", -0.173),
    ("RRIRYRPPRLPRPRPRPAFTPRP", -0.639),
]

###

# System: Escherichia coli TOP10
# PROTOCOL: shrunken log2 fold change of peptide-encoding DNA abundance (4.5 h post-induction vs induction); higher = less antimicrobial activity (less host growth inhibition)
# EXPERIMENTAL SETUP: time post-induction: 4.5 h; library: site-saturation at positions 5, 18, 19, 20
Bucketed by reported shrunken log2 fold change, buckets being low = under -0.05, medium = from -0.05 up to 0.1, high = 0.1 and over

# SEQ TEXT, GROUP
records = [
    ("RRIRKRPPRLPRPRPRPYFIPRP", "low"),
    ("RRIRIRPPRLPRPRPRPPAQPRP", "medium"),
    ("RRIRNRPPRLPRPRPRPSLRPRP", "medium"),
    ("RRIRRRPPRLPRPRPRPVYLPRP", "low"),
    ("RRIRPRPPRLPRPRPRPPCFPRP", "high"),
    ("RRIRARPPRLPRPRPRPVQNPRP", "high"),
    ("RRIRGRPPRLPRPRPRPRIWPRP", "high"),
    ("RRIRYRPPRLPRPRPRPYPHPRP", "low"),
    ("RRIRARPPRLPRPRPRPWGIPRP", "medium"),
    ("RRIRCRPPRLPRPRPRPKLDPRP", "high"),
    ("RRIRSRPPRLPRPRPRPVIGPRP", "medium"),
    ("RRIRDRPPRLPRPRPRPNHQPRP", "low"),
    ("RRIRGRPPRLPRPRPRPKYRPRP", "medium"),
    ("RRIRARPPRLPRPRPRPGLDPRP", "high"),
    ("RRIRARPPRLPRPRPRPEWQPRP", "high"),
    ("RRIRHRPPRLPRPRPRPSCAPRP", "high"),
    ("RRIRERPPRLPRPRPRPNPAPRP", "medium"),
    ("RRIRYRPPRLPRPRPRPLTWPRP", "low"),
    ("RRIRCRPPRLPRPRPRPYKIPRP", "low"),
    ("RRIRMRPPRLPRPRPRPLWTPRP", "high"),
    ("RRIRMRPPRLPRPRPRPWDIPRP", "high"),
    ("RRIRGRPPRLPRPRPRPWWMPRP", "high"),
    ("RRIRCRPPRLPRPRPRPGDQPRP", "high"),
    ("RRIRGRPPRLPRPRPRPWDVPRP", "medium"),
    ("RRIRHRPPRLPRPRPRPKGYPRP", "low"),
    ("RRIRLRPPRLPRPRPRPILYPRP", "low"),
    ("RRIRPRPPRLPRPRPRPSNWPRP", "low"),
    ("RRIRLRPPRLPRPRPRPMASPRP", "medium"),
    ("RRIRWRPPRLPRPRPRPPMFPRP", "medium"),
    ("RRIRVRPPRLPRPRPRPVNNPRP", "low"),
    ("RRIRERPPRLPRPRPRPKNEPRP", "low"),
    ("RRIRDRPPRLPRPRPRPNVIPRP", "medium"),
    ("RRIRKRPPRLPRPRPRPVSMPRP", "high"),
    ("RRIRYRPPRLPRPRPRPVESPRP", "low"),
    ("RRIRLRPPRLPRPRPRPKKQPRP", "medium"),
    ("RRIRKRPPRLPRPRPRPYQYPRP", "low"),
    ("RRIRPRPPRLPRPRPRPWPLPRP", "high"),
    ("RRIRTRPPRLPRPRPRPQCLPRP", "medium"),
    ("RRIRHRPPRLPRPRPRPKFGPRP", "medium"),
    ("RRIRYRPPRLPRPRPRPFCSPRP", "low"),
    ("RRIRDRPPRLPRPRPRPLSEPRP", "high"),
    ("RRIRPRPPRLPRPRPRPCMYPRP", "low"),
    ("RRIRKRPPRLPRPRPRPEKYPRP", "medium"),
    ("RRIRPRPPRLPRPRPRPARCPRP", "high"),
    ("RRIRVRPPRLPRPRPRPQHDPRP", "low"),
    ("RRIRNRPPRLPRPRPRPEEWPRP", "high"),
    ("RRIRQRPPRLPRPRPRPKHDPRP", "low"),
    ("RRIRWRPPRLPRPRPRPIHNPRP", "low"),
    ("RRIRGRPPRLPRPRPRPSNWPRP", "high"),
    ("RRIRGRPPRLPRPRPRPQALPRP", "high"),
    ("RRIRGRPPRLPRPRPRPTFMPRP", "high"),
    ("RRIRERPPRLPRPRPRPPINPRP", "low"),
    ("RRIRFRPPRLPRPRPRPRGEPRP", "high"),
    ("RRIRNRPPRLPRPRPRPPYVPRP", "medium"),
]

###

# System: Escherichia coli TOP10
# PROTOCOL: shrunken log2 fold change of peptide-encoding DNA abundance (4.5 h post-induction vs induction); higher = less antimicrobial activity (less host growth inhibition)
# EXPERIMENTAL SETUP: time post-induction: 4.5 h; library: site-saturation at positions 5, 18, 19, 20
Parameter: shrunken log2 fold change. Scope: all listed entries.
RECORDED METRIC: shrunken log2 fold change

# SEQ TEXT, MEASURED TARGET, RECORDED MEASUREMENT
data = [
    ("RRIRKRPPRLPRPRPRPGPQPRP", "Escherichia coli TOP10", 0.561),
    ("RRIRYRPPRLPRPRPRPKMQPRP", "Escherichia coli TOP10", -0.344),
    ("RRIRMRPPRLPRPRPRPPGYPRP", "Escherichia coli TOP10", 0.599),
    ("RRIRHRPPRLPRPRPRPPRPPRP", "Escherichia coli TOP10", 0.664),
    ("RRIRMRPPRLPRPRPRPRTYPRP", "Escherichia coli TOP10", -0.00485),
    ("RRIRGRPPRLPRPRPRPTYEPRP", "Escherichia coli TOP10", 0.318),
]

###

# Tested on: Escherichia coli TOP10;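 also: peptides expressed intracellularly from a pBAD plasmid library in pooled LB shake-flask culture, induced with 0.3% L-arabinose, DNA abundance read by NGS, three biological replicates, DESeq2 with apeglm shrinkage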
# PROTOCOL: shrunken log2 fold change of peptide-encoding DNA abundance (4.5 h post-induction vs induction); higher = less antimicrobial activity (less host growth inhibition)
# EXPERIMENTAL SETUP: time post-induction: 4.5 h; library: site-saturation at positions 5, 18, 19, 20

# SEQ TEXT, shrunken log2 fold change
rows = [
    ("RRIRHRPPRLPRPRPRPQVQPRP", 0.0789),
    ("RRIRHRPPRLPRPRPRPTAMPRP", 0.148),
    ("RRIRWRPPRLPRPRPRPQHEPRP", -0.0328),
    ("RRIRPRPPRLPRPRPRPMTVPRP", -0.038),
    ("RRIRTRPPRLPRPRPRPSETPRP", 0.11),
    ("RRIRNRPPRLPRPRPRPQEPPRP", 0.084),
    ("RRIRKRPPRLPRPRPRPCMQPRP", 0.121),
    ("RRIRCRPPRLPRPRPRPTWTPRP", 0.362),
    ("RRIRRRPPRLPRPRPRPFNCPRP", -0.301),
    ("RRIRNRPPRLPRPRPRPQCIPRP", -0.135),
    ("RRIRWRPPRLPRPRPRPYQDPRP", -0.411),
    ("RRIRKRPPRLPRPRPRPMHQPRP", 0.003),
    ("RRIRHRPPRLPRPRPRPDQFPRP", -0.441),
    ("RRIRHRPPRLPRPRPRPVSDPRP", 0.132),
    ("RRIRRRPPRLPRPRPRPVYMPRP", -0.0789),
    ("RRIRFRPPRLPRPRPRPKSTPRP", -0.3),
    ("RRIRTRPPRLPRPRPRPGNCPRP", 0.0747),
    ("RRIRNRPPRLPRPRPRPPLDPRP", 0.0724),
    ("RRIRNRPPRLPRPRPRPITMPRP", -0.533),
    ("RRIRIRPPRLPRPRPRPGCHPRP", -0.602),
    ("RRIRPRPPRLPRPRPRPTRGPRP", 0.543),
    ("RRIRIRPPRLPRPRPRPGMRPRP", 0.43),
    ("RRIRYRPPRLPRPRPRPFWPPRP", 0.0953),
    ("RRIRDRPPRLPRPRPRPHVCPRP", -0.00727),
    ("RRIRPRPPRLPRPRPRPCVPPRP", -0.134),
    ("RRIRERPPRLPRPRPRPTHRPRP", 0.243),
    ("RRIRLRPPRLPRPRPRPEQCPRP", -0.0243),
    ("RRIRWRPPRLPRPRPRPAIPPRP", 0.332),
]
